Source: patent US5328921A

Target: PAF receptor (Oryctolagus cuniculus)
Construct: centrifuged at 800 rpm for 10-15 minutes at room temperature to recover the platelet rich plasma (PRP); endogenous in cells; host or cells: rabbit platelets (platelet rich plasma from citrated blood of male New Zealand White rabbits)
Sequence (G1TEI7 1-342): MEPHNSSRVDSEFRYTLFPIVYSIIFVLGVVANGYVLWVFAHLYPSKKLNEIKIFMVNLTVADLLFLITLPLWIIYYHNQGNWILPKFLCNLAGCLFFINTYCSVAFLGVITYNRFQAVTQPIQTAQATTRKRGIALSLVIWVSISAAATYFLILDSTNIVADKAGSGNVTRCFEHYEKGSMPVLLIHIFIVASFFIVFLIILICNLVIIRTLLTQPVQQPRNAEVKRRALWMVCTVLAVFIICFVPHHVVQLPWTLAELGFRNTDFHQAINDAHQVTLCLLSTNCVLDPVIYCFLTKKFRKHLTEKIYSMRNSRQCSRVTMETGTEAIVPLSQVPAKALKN
Assay: In vitro PAF antagonism: inhibition of PAF induced platelet aggregation in rabbit platelet rich plasma
Type: cell-based, rabbit (male New Zealand White)
Settings: PAF challenge 5.00E-08 M; rabbit PRP
Label scheme for IC50: class 1 = under 1 µM, class 2 = from 1 µM up to 60 µM, class 3 = 60 µM and over

Example entries and their recorded answers appear below.
{"compound": "CCCCCCCCCCCCCCOc1ccc(C(=O)N(Cc2cccc[n+]2Cc2ccccc2)C(C)=O)cc1", "group": "class 3"}
{"compound": "CCCCCCCCCCCCCCOc1ccc(C(=O)N(Cc2cccc[n+]2C)C(C)=O)cc1C(C)(C)C", "group": "class 1"}
{"compound": "CCCCCCCCCCCCCCOc1cc(C(=O)N(Cc2cccc[n+]2C)C(C)=O)ccc1OC", "group": "class 3"}
{"compound": "CCCCCCCCCCCCCCOc1ccc(C(=O)N(Cc2ccc[n+](C)c2)C(C)=O)cc1", "group": "class 2"}
{"compound": "CCCCCCCCCCCCCCOc1ccc(C(=O)N(Cc2cccc[n+]2C)C(=O)c2ccccc2OC)cc1", "group": "class 2"}
{"compound": "CCCCCCCCCCCCCCOc1ccc(C(=O)N(Cc2cccc[n+]2C)C(C)=O)cc1OC", "group": "class 1"}

Query molecule follows.
Query string: Each molecule maps to one class by IC50. Which class for `CCCCCCCCCCCCCCOc1ccccc1CN(Cc1cccc[n+]1C)C(C)=O` ?
Result string: class 2
